These measurements were taken from patent EP3587416A1.

- measurementTarget: CNA-CF-PRIEIT interaction (Homo sapiens)
- Construct: human CNAα (amino acids 2-347)
- Sequence (Q08209 2-347): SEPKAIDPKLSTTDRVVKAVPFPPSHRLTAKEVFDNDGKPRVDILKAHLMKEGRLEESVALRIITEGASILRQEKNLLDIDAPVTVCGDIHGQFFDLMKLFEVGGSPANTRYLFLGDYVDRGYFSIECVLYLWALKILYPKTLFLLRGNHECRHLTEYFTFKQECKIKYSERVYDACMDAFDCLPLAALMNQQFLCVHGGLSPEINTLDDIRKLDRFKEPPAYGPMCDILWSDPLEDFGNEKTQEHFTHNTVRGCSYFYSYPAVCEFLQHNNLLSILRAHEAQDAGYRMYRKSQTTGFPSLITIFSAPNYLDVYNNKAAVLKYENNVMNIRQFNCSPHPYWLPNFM
- methodDescription: Fluorescence polarization assay, disruption of the CNA-CF-PRIEIT interaction (Example 20)
- Format: binding
- reportedConditions: 50 µM compound, 5 µM human CNAα, 30 nM CF-PRIEIT; mean of triplicates
quantityName: inhibition at 50 µM (%)
The figure you give is taken to be in %; do not add the unit.

Below: 3 compounds and their reported inhibition at 50 µM.
In [3]: df
Out[3]:
                                   compound                         measurementtarget         quantityname  unitstext  observedmeasurement
0  COc1ccccc1-c1ccc(N2CCCC(NS(=O)(=O)c3c(C)noc3C)C2=O)c(F)c1 (stereo not shown)  CNA-CF-PRIEIT interaction (Homo sapiens)  inhibition at 50 µM          %                 11.1
1  COc1ccccc1-c1ccc(N2CCCC(NS(=O)(=O)c3cc4ccccc4o3)C2=O)c(F)c1 (stereo not shown)  CNA-CF-PRIEIT interaction (Homo sapiens)  inhibition at 50 µM          %                 25.8
2  COc1ccccc1-c1ccc(N2CCCC(N(CC#N)S(=O)(=O)c3cc(Cl)c(Cl)s3)C2=O)c(F)c1 (stereo not shown)  CNA-CF-PRIEIT interaction (Homo sapiens)  inhibition at 50 µM          %                 13.8

The record that follows has no inhibition at 50 µM shown yet.
**Q:** # lookup: inhibition at 50 µM of CCOC(=O)CN(C1CCCN(c2ccc(-c3ccccc3OC)cc2F)C1=O)S(=O)(=O)c1ccc2c(c1)OCO2 (stereo not shown)
**A:** 16.7
